tested on: breast line MDA468; assay: In vitro cell culture growth assay (MTS), MDA468; format: cell-based, human; conditions: Homo sapiens, 72 h, MDA468 cells, three days after drug treatment
Quantity measured: IC50 (nM)
Dear colleague, please return just the value in nM, with no unit written.

Ask: Tell me the measured IC50 of `Oc1cccc(-c2nc(N3CCOCC3)c3cnn(C4CCN(Cc5ccccc5)CC4)c3n2)c1` , please.
Reply: 1900

Ask: Would you kindly repeat that for NNC(=O)Nc1ccc(-c2nc(N3CCOCC3)c3cnn(-c4ccccc4)c3n2)cc1 [Compound 538] ?
Reply: 8000

Ask: Would you kindly repeat that for `CNC(=O)Nc1ccc(-c2nc(N3CCOCC3)c3cnn(C4CCN(CC(=O)OC)CC4)c3n2)cc1` ?
Reply: 500

Ask: Would you kindly repeat that for `C=CC(=O)N1CCC(n2ncc3c(N4CCOCC4)nc(-c4ccc(NC(=O)OC)cc4)nc32)CC1` ?
Reply: 1200
